// reported Population Normal (%) for each item listed
# Tested on: HEK-293T
# Assay Method Text: Multiplex assay against HEK293T
# Type: toxicity, cell-based
# Reported Conditions: human, 48 h, 1 µM, compound concentration 1 uM, replicate 1
Express your answer in %, writing the number without its unit.

Compound	Population Normal (%)
CCCn1c(=O)c2[nH]c(C34CC5CC(CC3C5)C4)nc2n(CCC)c1=O	76
CC(=O)c1cc(-c2cc(C(=O)NC3CC3)ccc2C)c2ncccn12	85
COc1ccc(NS(=O)(=O)c2sc3ccc(Cl)cc3c2C)cc1N1CCNCC1.Cl	70
Cc1nc(Cc2cccc(C(F)(F)F)c2)sc1-c1ccc(C(N)=O)nc1 [TP-024n]	90
CCc1cc2c(cc1CC)CC(NC[C@H](O)c1ccc(O)c3[nH]c(=O)ccc13)C2	90

Population Normal (%) lookup needed for CCC(=O)O[C@]1(C(=O)SCF)[C@H](C)C[C@H]2[C@@H]3C[C@H](F)C4=CC(=O)C=C[C@]4(C)[C@@]3(F)[C@@H](O)C[C@@]21C [FLUTICASONE PROPIONATE] , thanks.
85
